Where do the numbers come from? From the supplement of paper PMC10307832.

# System: NCI-H3122
# Method Notes: relative viability (nuclei count vs DMSO), 5 days (fraction); higher = more cells survive
# Experimental Setup: first compound 0.08 µM
Some molecules, each annotated with its measured relative viability.

Molecule	relative viability
CCCCCCCCCCCC1=C(O)C(=O)C=C(O)C1=O [Embelin] + CC(C)C[C@H](NC(=O)[C@H](Cc1ccccc1)NC(=O)c1cnccn1)B(O)O [Bortezomib] (partner 0.002 µM)	0.978
CCCCCCCCCCCC1=C(O)C(=O)C=C(O)C1=O [Embelin] + CC(=O)Nc1cccc(-n2c(=O)n(C3CC3)c(=O)c3c(Nc4ccc(I)cc4F)n(C)c(=O)c(C)c32)c1 [Trametinib] (partner 0.02 µM)	0.251
CCCCCCCCCCCC1=C(O)C(=O)C=C(O)C1=O [Embelin] + CS(=O)(=O)N1CCN(Cc2cc3nc(-c4cccc5[nH]ncc45)nc(N4CCOCC4)c3s2)CC1 [Pictilisib] (partner 1 µM)	0.647
CCCCCCCCCCCC1=C(O)C(=O)C=C(O)C1=O [Embelin] + C[C@@H](Oc1cc(-c2cnn(C3CCNCC3)c2)cnc1N)c1c(Cl)ccc(F)c1Cl [Crizotinib] (partner 1 µM)	0.296
CCCCCCCCCCCC1=C(O)C(=O)C=C(O)C1=O [Embelin] + Nc1ncn([C@H]2C[C@H](O)[C@@H](CO)O2)c(=O)n1 [Decitabine] (partner 2 µM)	0.385
CCCCCCCCCCCC1=C(O)C(=O)C=C(O)C1=O [Embelin] + Cc1nc(Nc2ncc(C(=O)Nc3c(C)cccc3Cl)s2)cc(N2CCN(CCO)CC2)n1 [Dasatinib] (partner 0.075 µM)	0.823

---

# Test system: NCI-H1792
# Method Notes: relative viability (nuclei count vs DMSO), 5 days (fraction); higher = more cells survive
# Experimental Setup: first compound 0.01 µM
# maps each entry to its relative viability

Molecule	relative viability
CC(C)Oc1cc(Nc2nc(N[C@@H](C)c3ccc(F)cn3)ncc2Cl)n[nH]1 [AZ23] + CC(=O)c1c(C)c2cnc(Nc3ccc(N4CCNCC4)cn3)nc2n(C2CCCC2)c1=O [Palbociclib] (partner 0.5 µM)	0.737
CC(C)Oc1cc(Nc2nc(N[C@@H](C)c3ccc(F)cn3)ncc2Cl)n[nH]1 [AZ23] + COc1cccc2cc(-c3nc([C@H]4CC[C@H](C(=O)O)CC4)n4ncnc(N)c34)[nH]c12 [OSI-027] (partner 0.5 µM)	0.752
CC(C)Oc1cc(Nc2nc(N[C@@H](C)c3ccc(F)cn3)ncc2Cl)n[nH]1 [AZ23] + CC1(C)CCC(c2ccc(Cl)cc2)=C(CN2CCN(c3ccc(C(=O)NS(=O)(=O)c4ccc(N[C@H](CCN5CCOCC5)CSc5ccccc5)c(S(=O)(=O)C(F)(F)F)c4)cc3)CC2)C1 [Navitoclax] (partner 0.5 µM)	0.763
CC(C)Oc1cc(Nc2nc(N[C@@H](C)c3ccc(F)cn3)ncc2Cl)n[nH]1 [AZ23] + NC(=O)Nc1cc(-c2cccc(F)c2)sc1C(=O)N[C@H]1CCCNC1 [AZD7762] (partner 0.2 µM)	0.595

---

# System: NCI-H647
# Method Notes: relative viability (nuclei count vs DMSO), 5 days (fraction); higher = more cells survive
# Experimental Setup: first compound 0.04 µM
Each entry below carries its reported relative viability.

Molecule	relative viability
C[C@@H]1CN(CC(=O)Nc2ccc3c(c2)Cc2cccc(-c4cc(=O)cc(N5CCOCC5)o4)c2S3)C[C@H](C)O1 + CS(=O)(=O)N1CCN(Cc2cc3nc(-c4cccc5[nH]ncc45)nc(N4CCOCC4)c3s2)CC1 [Pictilisib] (partner 1 µM)	0.258
C[C@@H]1CN(CC(=O)Nc2ccc3c(c2)Cc2cccc(-c4cc(=O)cc(N5CCOCC5)o4)c2S3)C[C@H](C)O1 + Nc1ncn([C@H]2C[C@H](O)[C@@H](CO)O2)c(=O)n1 [Decitabine] (partner 2 µM)	0.442
COc1cc(N2CCC(C(N)=O)CC2)ccc1Nc1nc(N)c(Cl)c(Nc2ccccc2S(=O)(=O)C(C)C)n1 [HG-5-88-01] + NC(=O)Nc1cc(-c2cccc(F)c2)sc1C(=O)N[C@H]1CCCNC1 [AZD7762] (partner 0.2 µM)	0.455
Clc1ccc(Nc2nnc(Cc3ccncc3)c3ccccc23)cc1 [Vatalanib] + C[C@]1(O)C[C@@H](c2nc(-c3ccc4ccc(-c5ccccc5)nc4c3)c3c(N)nccn32)C1 [Linsitinib] (partner 1 µM)	1.02
